- System: EW-13;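 further: growth inhibition of EW-13 cells, read out with a cell viability assay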
- ASSAY_TEXT: cells
- Format: functional, cell-based, Homo sapiens
- CONDITION_SET: Homo sapiens, EW-13; read-out: IC50
- Description: SANGER: Inhibition of human EW-13 cell growth in a cell viability assay.
For each record, write down the corresponding pIC50.
Give bare numbers, as −log10 of the molar value.

{"SMILES_STR": "CC1=C(/C=C/C(C)=C/C=C/C(C)=C/C(=O)O)C(C)(C)CCC1", "READOUT_NAME": "pIC50", "REPORTED": 5.12}
{"SMILES_STR": "CN(NC(=O)CC(=O)NN(C)C(=S)c1ccccc1)C(=S)c1ccccc1", "READOUT_NAME": "pIC50", "REPORTED": 7.70}
{"SMILES_STR": "CCCCCCCCCCCC1=C(O)C(=O)C=C(O)C1=O", "READOUT_NAME": "pIC50", "REPORTED": 5.01}

# evaluate next
# pIC50 of `C/C(=C\c1csc(C)n1)[C@@H]1C[C@@H]2O[C@]2(C)CCC[C@H](C)[C@H](O)[C@@H](C)C(=O)C(C)(C)[C@@H](O)CC(=O)O1` = 9.04

###

- Test system: CMK;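 further: growth inhibition of CMK cells, read out as cell viability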
- ASSAY_TEXT: cells
- Format: functional, cell-based, Homo sapiens
- CONDITION_SET: Homo sapiens, CMK
- Description: SANGER: Inhibition of human CMK cell growth in a cell viability assay.
READOUT_NAME: pIC50
Give bare numbers, as −log10 of the molar value.

{"SMILES_STR": "CC(C)C[C@H](NC(=O)[C@H](Cc1ccccc1)NC(=O)c1cnccn1)B(O)O", "pIC50": 8.89}

# evaluate next
# pIC50 of `C/C(=C\c1csc(C)n1)[C@@H]1C[C@@H]2O[C@]2(C)CCC[C@H](C)[C@H](O)[C@@H](C)C(=O)C(C)(C)[C@@H](O)CC(=O)O1` = 8.88

###

- Test system: EW-12
- ASSAY_TEXT: SANGER: Inhibition of human EW-12 cell growth in a cell viability assay.
- Type: functional, cell-based
- CONDITION_SET: Homo sapiens, EW-12
For each record, write down the corresponding IC50.

{"COMPOUND": "C=CC(=O)N1CCCC(Nc2nc(Nc3ccc(N(C)C(=O)CC)cc3)nc3[nH]cnc23)C1 (configuration not stated)", "READOUT_NAME": "IC50", "REPORTED": "> 10.2 µM"}

# IC50 of `CC(C)C[C@H](NC(=O)[C@H](Cc1ccccc1)NC(=O)c1cnccn1)B(O)O` = > 0.02 µM

###

- Tested on: TE-8;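 further: growth inhibition of TE-8 cells, measured with a cell viability readout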
- ASSAY_TEXT: cells
- Type: functional, cell-based, Homo sapiens
- CONDITION_SET: Homo sapiens, TE-8
- Description: SANGER: Inhibition of human TE-8 cell growth in a cell viability assay.
READOUT_NAME: pIC50
One number for each entry, as −log10 of the molar value.

{"SMILES_STR": "Cc1cc(N2CCOCC2)cc2[nH]c(-c3c(NC[C@@H](O)c4cccc(Cl)c4)cc[nH]c3=O)nc12", "REPORTED": 6.30}

# pIC50 of `CN(NC(=O)CC(=O)NN(C)C(=S)c1ccccc1)C(=S)c1ccccc1` = 8.27

###

- System: C8166;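 further: growth inhibition of human C8166 cells measured by a cell viability assay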
- ASSAY_TEXT: cells
- Assay type: functional, cell-based, Homo sapiens
- CONDITION_SET: Homo sapiens, C8166
- Description: SANGER: Inhibition of human C8166 cell growth in a cell viability assay.
pIC50: −log10 of the molar value.
READOUT_NAME: pIC50

Here's what some known entries look like.
{"SMILES_STR": "C/C(=C\\c1csc(C)n1)[C@@H]1C[C@@H]2O[C@]2(C)CCC[C@H](C)[C@H](O)[C@@H](C)C(=O)C(C)(C)[C@@H](O)CC(=O)O1", "pIC50": 7.50}
{"SMILES_STR": "O=C(NCCCNc1nc(Nc2cccc(NC(=O)N3CCCC3)c2)ncc1I)c1cccs1", "pIC50": "< 5.30"}
{"SMILES_STR": "Nc1ccccc1NC(=O)c1ccc(CNC(=O)OCc2cccnc2)cc1", "pIC50": "< 5.30"}

# evaluate next
# pIC50 of `CN(NC(=O)CC(=O)NN(C)C(=S)c1ccccc1)C(=S)c1ccccc1` = < 6.70

###

- System: KG-1;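 further: growth inhibition of KG-1 cells, read out by a cell viability assay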
- ASSAY_TEXT: cells
- Format: functional, cell-based, Homo sapiens
- CONDITION_SET: Homo sapiens, KG-1
- Description: SANGER: Inhibition of human KG-1 cell growth in a cell viability assay.
pIC50: −log10 of the molar value.
READOUT_NAME: pIC50

{"COMPOUND": "COC(=O)[C@H](CCSC)NC(=O)c1ccc(NC[C@@H](N)CS)cc1-c1ccccc1", "pIC50": "< 5.99"}

Parameters: items (list). Returns: pIC50 for each item.
1. NC1(c2ccc(-c3nc4ccn5c(=O)[nH]nc5c4cc3-c3ccccc3)cc2)CCC1 [MK-2206]
2. CCCCCCCCCCCC1=C(O)C(=O)C=C(O)C1=O [EMBELIN]

1: < 5.40; 2: < 4.49

###

- Tested on: KNS-42
- ASSAY_TEXT: cells
- Type: functional, cell-based
- CONDITION_SET: Homo sapiens
- Description: SANGER: Inhibition of human KNS-42 cell growth in a cell viability assay.
pIC50: −log10 of the molar value.
READOUT_NAME: pIC50

Here's what some known entries look like.
{"SMILES_STR": "Cc1ccc(-n2nc(C(C)(C)C)cc2NC(=O)Nc2ccc(OCCN3CCOCC3)c3ccccc23)cc1", "TEST_SYSTEM": "KNS-42", "pIC50": "< 5.00"}
{"SMILES_STR": "Cc1ccc(C(=O)Nc2ccc(CN3CCN(C)CC3)c(C(F)(F)F)c2)cc1C#Cc1cnc2cccnn12", "TEST_SYSTEM": "KNS-42", "pIC50": "< 6.29"}
{"SMILES_STR": "COc1ccc(N(C(=O)Oc2c(C)cccc2C)c2ccnc(Nc3ccc(N4CCN(C)CC4)cc3)n2)c(OC)c1", "TEST_SYSTEM": "KNS-42", "pIC50": "< 5.29"}
{"SMILES_STR": "O=C1NC(=O)c2c1c(-c1ccccc1Cl)cc1[nH]c3ccc(O)cc3c21", "TEST_SYSTEM": "KNS-42", "pIC50": "< 5.70"}

# evaluate next
# pIC50 of `CC(C)C[C@H](NC(=O)[C@H](Cc1ccccc1)NC(=O)c1cnccn1)B(O)O` = 9.59

###

For each record, write down the corresponding pIC50.
- System: DU-4475
- ASSAY_TEXT: cells
- Assay type: functional, cell-based, Homo sapiens
- CONDITION_SET: Homo sapiens, DU-4475
- Description: SANGER: Inhibition of human DU-4475 cell growth in a cell viability assay.
One number for each entry, as −log10 of the molar value.

{"COMPOUND": "O=C(NCCCNc1nc(Nc2cccc(NC(=O)N3CCCC3)c2)ncc1I)c1cccs1 [BX-795]", "pIC50": 5.89}

# evaluate next
# pIC50 of CN(C)CCOc1ccc(-c2nc(-c3ccncc3)c(-c3ccc4c(c3)CC/C4=N\O)[nH]2)cc1 [SB590885] = 7.63

###

- Test system: 639-V
- ASSAY_TEXT: cells
- Format: functional, cell-based
- CONDITION_SET: Homo sapiens
- Description: SANGER: Inhibition of human 639-V cell growth in a cell viability assay.
READOUT_NAME: IC50

{"SMILES_STR": "NC(=O)c1ccc(N(C(N)=O)c2c(F)cccc2F)nc1-c1ccc(F)cc1F", "IC50": "> 2000 nM"}

Parameters: items (list). Returns: IC50 for each item.
1. CC1(C)CCC(c2ccc(Cl)cc2)=C(CN2CCN(c3ccc(C(=O)NS(=O)(=O)c4ccc(N[C@H](CCN5CCOCC5)CSc5ccccc5)c(S(=O)(=O)C(F)(F)F)c4)cc3)CC2)C1
2. Cc1ccc(C(=O)Nc2ccc(CN3CCN(C)CC3)c(C(F)(F)F)c2)cc1C#Cc1cnc2cccnn12

["> 2000 nM", "> 512 nM"]

Parameters: items (list). Returns: IC50 for each item.
1. Cc1ccc(-n2nc(C(C)(C)C)cc2NC(=O)Nc2ccc(OCCN3CCOCC3)c3ccccc23)cc1
2. C/C(=C\c1csc(C)n1)[C@@H]1C[C@@H]2O[C@]2(C)CCC[C@H](C)[C@H](O)[C@@H](C)C(=O)C(C)(C)[C@@H](O)CC(=O)O1

1. > 10000 nM
2. 0.218 nM

###

- System: BXPC-3
- ASSAY_TEXT: cells
- Type: functional, cell-based
- CONDITION_SET: Homo sapiens
- Description: SANGER: Inhibition of human BxPC-3 cell growth in a cell viability assay.
READOUT_NAME: pIC50
Give bare numbers, as −log10 of the molar value.

{"SMILES_STR": "C/C(=C\\c1csc(C)n1)[C@@H]1C[C@@H]2O[C@]2(C)CCC[C@H](C)[C@H](O)[C@@H](C)C(=O)C(C)(C)[C@@H](O)CC(=O)O1", "pIC50": 8.76}

# evaluate next
# pIC50 of `CCCCCCCCCCCC1=C(O)C(=O)C=C(O)C1=O` = 5.19

###

- System: AGS;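 further: growth inhibition of AGS cells, determined with a cell viability assay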
- ASSAY_TEXT: cells
- Format: functional, cell-based
- CONDITION_SET: Homo sapiens
- Description: SANGER: Inhibition of human AGS cell growth in a cell viability assay.
READOUT_NAME: pIC50
Numbers only, as −log10 of the molar value.

{"SMILES_STR": "CCCCCCCCCCCC1=C(O)C(=O)C=C(O)C1=O", "pIC50": 5.06}
{"SMILES_STR": "NC1(c2ccc(-c3nc4ccn5c(=O)[nH]nc5c4cc3-c3ccccc3)cc2)CCC1", "pIC50": 5.57}

# evaluate next
# pIC50 of `CS(=O)(=O)N1CCN(Cc2cc3nc(-c4cccc5[nH]ncc45)nc(N4CCOCC4)c3s2)CC1` = 5.44
